target: Env of the clade B HIV-1 pseudoviruses of the cross-clade 162-pseudovirus panel (n = 31); experiment: cell-based or functional assay
experimental_endpoint: Median IC50 against viruses neutralized with an IC50 <50 µg/ml (µg/mL)
Give bare numbers, in µg/mL.

query: Requested field: Median IC50 against viruses neutralized with an IC50 <50 µg/ml. Item: PGT-126 (antibody, V domains shown) VH: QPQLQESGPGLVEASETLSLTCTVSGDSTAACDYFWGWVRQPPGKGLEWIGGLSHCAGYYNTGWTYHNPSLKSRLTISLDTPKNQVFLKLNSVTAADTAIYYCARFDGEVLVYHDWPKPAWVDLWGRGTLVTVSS VL: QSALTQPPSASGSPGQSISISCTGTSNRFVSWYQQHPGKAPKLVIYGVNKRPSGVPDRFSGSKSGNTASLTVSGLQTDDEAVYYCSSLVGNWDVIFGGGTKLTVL
result: 0.02

query: Find the recorded Median IC50 against viruses neutralized with an IC50 <50 µg/ml belonging to PGT-127 (antibody, V domains shown) VH: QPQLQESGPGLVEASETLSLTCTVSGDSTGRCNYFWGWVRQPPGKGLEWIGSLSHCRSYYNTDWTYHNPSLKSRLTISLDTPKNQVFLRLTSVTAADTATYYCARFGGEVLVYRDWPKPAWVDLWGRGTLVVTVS VL: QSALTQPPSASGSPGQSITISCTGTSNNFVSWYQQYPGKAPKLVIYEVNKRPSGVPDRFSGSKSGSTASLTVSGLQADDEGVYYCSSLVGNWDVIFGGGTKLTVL and report it.
result: 0.06

query: # lookup: Median IC50 against viruses neutralized with an IC50 <50 µg/ml of PGT-137 (antibody, V domains shown) VH: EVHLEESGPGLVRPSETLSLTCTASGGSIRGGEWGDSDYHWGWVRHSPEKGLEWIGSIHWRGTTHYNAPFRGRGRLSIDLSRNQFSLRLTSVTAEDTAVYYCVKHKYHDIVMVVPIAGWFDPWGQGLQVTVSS VL: EIMMTQSPAILSVSPGDRATLSCRASQSVKNNLAWYQKRPGQAPRLLIFDTSSRASGIPARFSGGGSGTEFTLTVNSMQSEDFATYYCQQYEEWPRTFGQGTKVEIK
result: 8.55

Continuing:
query: // Median IC50 against viruses neutralized with an IC50 <50 µg/ml lookup, key: PGT-123 (antibody, V domains shown) VH: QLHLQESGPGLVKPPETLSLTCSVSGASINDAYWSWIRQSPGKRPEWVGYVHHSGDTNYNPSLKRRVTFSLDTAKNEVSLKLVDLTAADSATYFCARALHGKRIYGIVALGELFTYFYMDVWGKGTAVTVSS VL: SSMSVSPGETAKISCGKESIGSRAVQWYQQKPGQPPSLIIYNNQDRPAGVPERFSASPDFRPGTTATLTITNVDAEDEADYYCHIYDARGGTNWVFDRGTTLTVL
result: 0.02
